These measurements were taken from ChEMBL document CHEMBL4480360.

- Procedure details: Glutathione reactivity assessed as half life at 250 uM up to 72 hrs by HPLC-MS or NMR analysis
- Format: physicochemical
- Experimental setup: gsh
Parameter: log10(t1/2) (log10 of the value in h)
Use the decimal logarithm of t1/2 (h).

INSERT INTO assay_data (molecule, parameter, result) VALUES
  ('C#CCn1ccnc1', 'log10(t1/2)', 1.68),
  ('Brc1cncs1', 'log10(t1/2)', 1.80),
  ('N#Cc1cccnc1', 'log10(t1/2)', 1.61),
  ('N#Cc1cnccn1', 'log10(t1/2)', 1.35);

Requested field: log10(t1/2). Item: N#Cc1ccncc1 [ISONICOTINONITRILE] -0.10
